test: solvent given as SMILES; settings: in CCCC(C)O
property: solvation free energy, 298 K (kcal/mol)
The response must be a number in kcal/mol with no trailing unit.

IN: Find the recorded solvation free energy, 298 K belonging to O=C1c2ccccc2C(=O)c2c(Cl)cccc21 and report it.
OUT: -12.8

IN: Find the recorded solvation free energy, 298 K belonging to c1ccc2c(c1)-c1cccc3cccc-2c13 and report it.
OUT: -11.4

IN: Find the recorded solvation free energy, 298 K belonging to c1cc2c3c(cccc3c1)CC2 and report it.
OUT: -8.52

IN: Find the recorded solvation free energy, 298 K belonging to O=[N+]([O-])c1ccc(CCl)cc1 and report it.
OUT: -8.24

IN: Find the recorded solvation free energy, 298 K belonging to CCOC(=O)c1ccc(N)cc1 and report it.
OUT: -11.2

IN: Find the recorded solvation free energy, 298 K belonging to CCCO and report it.
OUT: -5.34

IN: Find the recorded solvation free energy, 298 K belonging to CN(C)C(=O)Nc1ccc(Cl)cc1 and report it.
OUT: -13

IN: Find the recorded solvation free energy, 298 K belonging to COC and report it.
OUT: -2.05
